This collection of values is drawn from PubChem BioAssay (NCATS).

Experiment: S16 Schwann cell PMP22 intronic element beta-lactamase assay (AID 624044); further: nearly all actives have a fitted effect of over 15% in size
Conditions: S16 rat Schwann cells, PMP22 element beta-lactamase FRET, 24 h; series mostly up to 38.3 µM
Method: Description: Charcot-Marie-Tooth-Association [CMTA] National Center for Advancing Translational Sciences [NCATS] […] S16 Schwann cell PMP22 intronic element beta-lactamase assay The beta-Lac-expressing S16 cells were seeded in black clear-bottom 1536 well plates at between 500-750 cells/6uL in DMEM medium containing 10% FBS, w/o phenol red. […] The concentration-effect curves were then classified based on curve quality (r2), response magnitude and degree of measured activity.
Results filed as inconclusive are left out. Active and inactive are the calls of the source. The call rests on the fitted dose curve.
Classes to choose from: active, inactive

Worked examples follow.
{"columns": ["Molecule", "Class Label"],
 "data": [
  ["C#C[C@]1(O)CC[C@H]2[C@@H]3CCc4cc(O)ccc4[C@H]3CC[C@@]21C", "inactive"],
  ["COC(=O)C1=C(C)NC(C)=C(C(=O)OCC(C)C)C1c1ccccc1[N+](=O)[O-] (stereo unspecified)", "inactive"]
]}

Ask: Tell me the assay call for O=C(O)c1cc(O)c(O)c(O)c1 please.
Reply: inactive

Ask: Entry O=C(O)/C=C/C(O)c1ccc(Cl)cc1 (stereo unspecified) : call = ?
Reply: inactive

Ask: // param item: COc1cc(/C=C/C(=O)CC(=O)/C=C/c2ccc(O)c(OC)c2)ccc1O ; yields the recorded call
Reply: inactive

Ask: Recorded test call requested for CCCOC(=O)c1ccc(O)cc1
Reply: inactive

Ask: State the result this test recorded for COc1cc(CNC(=O)CCCC/C=C/C(C)C)ccc1O .
Reply: inactive

Ask: What did the test return for CC1(C)[C@@H](O)CC[C@]2(C)[C@H]3C(=O)C=C4[C@@H]5C[C@@](C)(C(=O)O)CC[C@]5(C)CC[C@@]4(C)[C@]3(C)CC[C@@H]12 ?
Reply: inactive

Ask: Field: outcome | Entry: O=C(Nc1ccc(C(=O)O)c(O)c1)c1ccccc1
Reply: inactive

Ask: Please state the recorded outcome for this molecule: CC(N)C(=O)OC(C)(C)Cc1ccc(Cl)cc1 (stereo unspecified)
Reply: inactive

Ask: Could you please tell me the result logged for N=c1ccn2c(n1)O[C@H]1[C@H](O)[C@@H](CO)O[C@H]12 in this assay?
Reply: active
